molecular target: Dual specificity protein kinase CLK3 (Homo sapiens) (UniProt P49761); assay: Reaction Biology data for inhibitors of CLK3: Probe SAR; settings: Reaction Biology CLK3 kinase assay, 10 uM ATP; series mostly up to 10 µM
Sequence (P49761 whole entry, looked up): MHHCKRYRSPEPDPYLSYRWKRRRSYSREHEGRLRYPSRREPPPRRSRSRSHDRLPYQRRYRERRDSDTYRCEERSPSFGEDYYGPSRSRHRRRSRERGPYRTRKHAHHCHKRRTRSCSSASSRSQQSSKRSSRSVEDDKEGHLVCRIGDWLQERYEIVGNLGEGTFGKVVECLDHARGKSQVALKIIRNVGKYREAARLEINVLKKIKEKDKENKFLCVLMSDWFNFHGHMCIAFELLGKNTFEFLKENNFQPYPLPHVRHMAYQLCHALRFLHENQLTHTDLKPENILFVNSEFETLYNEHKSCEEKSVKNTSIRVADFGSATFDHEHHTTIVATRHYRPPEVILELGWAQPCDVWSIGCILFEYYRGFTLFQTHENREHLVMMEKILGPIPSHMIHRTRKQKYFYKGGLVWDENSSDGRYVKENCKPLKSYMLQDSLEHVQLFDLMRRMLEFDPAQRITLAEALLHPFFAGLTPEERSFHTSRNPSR
Active and inactive are the calls of the source. Calls come from the whole dose curve; as a rule, active = well fitted inhibition curve with a large enough effect; inactive = no such curve, though single readings can be large or run the other way.
Write down the outcome that applies. Available outcomes: label 1 = active, label 0 = inactive

smiles text | target entity | assigned label
Clc1ccc(CNc2ncncc2-c2ccc3c(c2)OCO3)cc1 | Dual specificity protein kinase CLK3 (Homo sapiens) (UniProt P49761) | label 0

Ask: Could you check what this test reported for c1cncc(CNc2ccnc(-c3ccc4cn[nH]c4c3)n2)c1 ?
Result: label 0

Ask: Could you check what this test reported for Clc1ccc(CNc2nccc(-c3ccc4c(c3)OCCO4)n2)cc1Cl ?
Result: label 0

Ask: Could you check what this test reported for O=[N+]([O-])c1cc(Nc2nccc(-c3ccc4c(c3)OCO4)n2)cc(C(F)(F)F)c1 ?
Result: label 0

Ask: Could you check what this test reported for FC(F)(F)c1cc(Br)cc(Nc2nccc(-c3ccc4c(c3)OCO4)n2)c1 ?
Result: label 0

Ask: Could you check what this test reported for FC(F)(F)c1cccc(Nc2nccc(-c3ccc4c(c3)OCO4)n2)c1 ?
Result: label 0

Ask: Could you check what this test reported for c1cncc(CNc2nccc(-c3ccc4[nH]ncc4c3)n2)c1 ?
Result: label 1
